ELISA Ratio for assorted binders
assay-system: T1, LINGO-Fc (human, UniProt Q96FE5 40-538, limits assumed)
T1 construct: not shown: Fc part
T1 sequence: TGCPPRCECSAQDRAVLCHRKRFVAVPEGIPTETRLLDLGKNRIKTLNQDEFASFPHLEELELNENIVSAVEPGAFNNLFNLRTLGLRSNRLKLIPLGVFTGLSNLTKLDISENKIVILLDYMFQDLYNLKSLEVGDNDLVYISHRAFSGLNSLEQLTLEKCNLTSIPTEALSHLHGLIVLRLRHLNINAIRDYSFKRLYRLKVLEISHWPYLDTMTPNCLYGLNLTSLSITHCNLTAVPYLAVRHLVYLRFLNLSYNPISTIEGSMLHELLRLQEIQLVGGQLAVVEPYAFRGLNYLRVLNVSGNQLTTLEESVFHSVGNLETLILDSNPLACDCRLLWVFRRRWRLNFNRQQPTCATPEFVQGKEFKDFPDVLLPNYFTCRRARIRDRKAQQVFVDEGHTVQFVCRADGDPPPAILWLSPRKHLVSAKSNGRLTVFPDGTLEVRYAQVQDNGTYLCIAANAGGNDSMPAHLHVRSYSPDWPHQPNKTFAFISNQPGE
assay-name: direct ELISA on LINGO-Fc; half-maximal concentration relative to Li33;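 note: direct binding ELISA on plates coated with LINGO-Fc, concentration giving half of saturating binding, expressed as a ratio to the same value for the comparator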
Note: unit ratio is implicit; provide only the numeric part.

Example entries begin here.
binder	property-label	recorded-measurement
Li33 variant W104Q (SEQ ID NO:187) (antibody, V domains shown, unchanged chain from WT Li33) VH: EVQLLESGGGLVQPGGSLRLSCAASGFTFSIYPMFWVRQAPGKGLEWVSWIGPSGGITKYADSVKGRFTISRDNSKNTLYLQMNSLRAEDTATYYCAREGHNDQYFDLWGRGTLVTVSS VL: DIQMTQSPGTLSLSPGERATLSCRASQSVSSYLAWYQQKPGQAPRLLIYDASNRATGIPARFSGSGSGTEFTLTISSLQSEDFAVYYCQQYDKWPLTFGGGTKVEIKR	ELISA Ratio	1.1
Li33 variant W94G (SEQ ID NO:169) (antibody, V domains shown, unchanged chain from WT Li33) VH: EVQLLESGGGLVQPGGSLRLSCAASGFTFSIYPMFWVRQAPGKGLEWVSWIGPSGGITKYADSVKGRFTISRDNSKNTLYLQMNSLRAEDTATYYCAREGHNDWYFDLWGRGTLVTVSS VL: DIQMTQSPGTLSLSPGERATLSCRASQSVSSYLAWYQQKPGQAPRLLIYDASNRATGIPARFSGSGSGTEFTLTISSLQSEDFAVYYCQQYDKGPLTFGGGTKVEIKR	ELISA Ratio	0.9

Here is another binder to look at.
What does the data say about its ELISA Ratio? Entry: Li33 variant I57Y (SEQ ID NO:182) (antibody, V domains shown, unchanged chain from WT Li33) VH: EVQLLESGGGLVQPGGSLRLSCAASGFTFSIYPMFWVRQAPGKGLEWVSWIGPSGGYTKYADSVKGRFTISRDNSKNTLYLQMNSLRAEDTATYYCAREGHNDWYFDLWGRGTLVTVSS VL: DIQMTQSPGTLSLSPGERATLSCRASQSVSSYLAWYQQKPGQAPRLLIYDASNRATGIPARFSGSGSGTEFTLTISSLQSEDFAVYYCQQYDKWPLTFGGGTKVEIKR
0
